tested on: SNB-19 CNS; experiment: NCI tumour cell line growth inhibition, 48 h
measured metric: GI50

[
  {
    "compound": "Cc1nnc(-c2ccc(-c3nc4ccccc4o3)cc2)o1",
    "recorded measurement": "20.7 µM"
  },
  {
    "compound": "COc1cc([C@@H]2c3cc4c(cc3C(OC3O[C@@H]5COC(C)O[C@H]5[C@H](O)[C@H]3O)C3COC(=O)[C@@H]32)OCO4)cc(OC)c1O (some centres undefined)",
    "recorded measurement": "0.836 µM"
  },
  {
    "compound": "CCOC(=S)SCN1C(=O)c2ccccc2S1(=O)=O",
    "recorded measurement": "28.7 µM"
  },
  {
    "compound": "C#CCN(Cc1nc2cc(C(F)(F)F)ccc2nc1-c1ccccc1)c1ccc(F)c(F)c1",
    "recorded measurement": "92.5 µM"
  }
]

----------
test system: NCI-H23 lung; assay: NCI tumour cell line growth inhibition, 48 h

[
  {
    "compound": "N#Cc1cccc(OCc2ccccc2COc2cccc(C#N)c2)c1",
    "TGI": "> 100 µM"
  },
  {
    "compound": "C#CCN(C)C(=O)N(CC#C)N=O",
    "TGI": "> 100 µM"
  },
  {
    "compound": "C=CCN1CCC2(CC1)NC(=O)c1ccccc1O2",
    "TGI": "> 100 µM"
  },
  {
    "compound": "CCOC(=O)Cc1csc(NC(=O)COC(=O)c2ccc(OC)cc2)n1",
    "TGI": "> 100 µM"
  },
  {
    "compound": "OCC(O)C(O)C(O)C(O)/C=N/Nc1nc(O)c(/C=C2\\C=Nc3ccccc32)[nH]1 (stereo not given)",
    "TGI": "> 100 µM"
  },
  {
    "compound": "Cc1cc(O)c(C(C)C)cc1N=Cc1ccccc1O",
    "TGI": "37.9 µM"
  },
  {
    "compound": "O=S(=O)(O)ONC1=NCCN1",
    "TGI": "> 100 µM"
  },
  {
    "compound": "COc1c(N2CCN(Cn3c(O)c(N=NC(=O)c4ccncc4)c4cc(F)ccc43)C(C)C2)c(F)cc2c(=O)c(C(=O)O)cn(C3CC3)c12 (stereo not given)",
    "TGI": "> 50 µM"
  },
  {
    "compound": "COc1ccc2[nH]c(O)c(/C=c3/cc4c(c(-c5ccc(F)cc5)n3)=Nc3ccccc3-4)c2c1",
    "TGI": "10.9 µM"
  },
  {
    "compound": "Cc1cc(S(=O)(=O)Nc2nc3cc(Cl)ccc3o2)c(SCc2ccccc2)cc1Cl",
    "TGI": "54.2 µM"
  }
]

----------
tested on: SK-MEL-2 melanoma; assay: NCI tumour cell line growth inhibition, 48 h; in the data active means GI50 below about 0.43 µM; inactive means the rest
Possible outcomes: true for active, false for inactive

[
  {
    "compound": "CCOc1cc(C(C)(C)C)ccc1C1=N[C@@](C)(c2ccc(Cl)cc2)[C@@](C)(c2ccc(Cl)cc2)N1C(=O)N1CCN(CCS(C)(=O)=O)CC1",
    "category label": "false"
  },
  {
    "compound": "ClCC#CCSc1ncnc2c1ncn2CC#CCCl",
    "category label": "false"
  },
  {
    "compound": "O=[As]c1ccc(C(=O)c2ccc(Oc3ccccc3)cc2)cc1 (stereo not drawn)",
    "category label": "true"
  },
  {
    "compound": "O=C(NCCCCOCC#Cc1ccccc1C#CCS(=O)(=O)c1ccccc1)c1cc2ccccc2[nH]1",
    "category label": "false"
  },
  {
    "compound": "CN1CCN(CCOc2ccc(-c3cnc4c(-c5ccc(F)cc5)cnn4c3)cc2)CC1",
    "category label": "false"
  },
  {
    "compound": "c1ccc2nc(OCCN3CC3)ccc2c1",
    "category label": "false"
  },
  {
    "compound": "CCCCOc1ccc(/C=N/Nc2cc(C)nc3ccc(Cl)cc23)cc1",
    "category label": "false"
  },
  {
    "compound": "COc1ccc2c(c1)CC[C@@H]1[C@@H]2CC[C@]2(C)C=C(/C=C/C(=O)c3ccccc3)C[C@@H]12",
    "category label": "false"
  },
  {
    "compound": "COc1c(N2CCN(Cn3c(O)c(N=NC(=O)c4ccncc4)c4cc(F)ccc43)C(C)C2)c(F)cc2c(=O)c(C(=O)O)cn(C3CC3)c12 (stereo not drawn)",
    "category label": "false"
  },
  {
    "compound": "CC(=O)N1CCN(CCOc2ccc(C3CCN(C4=Nn5c(nnc5C(F)(F)F)CC4)CC3)cc2)CC1",
    "category label": "false"
  },
  {
    "compound": "COc1cc2c(cc1OC)-c1ncc3cc4c(cc3c1C2)OCO4",
    "category label": "false"
  },
  {
    "compound": "CCOC(=O)Cc1csc(NC(=O)COC(=O)c2ccc(OC)cc2)n1",
    "category label": "false"
  },
  {
    "compound": "O=C(Nc1cc(-c2cccnc2)nc(NCCCN2CCOCC2)n1)c1cc(Br)cc(C(F)(F)F)c1",
    "category label": "false"
  }
]

Source: PubChem BioAssay (NCI)
